organism: Rattus norvegicus; experiment: DrugMatrix - Regimen: Daily Repeat; assay type: toxicity, organism-based, Sprague-Dawley; set-up: regimen Daily Repeat, gender Male, age 6-8 weeks; details: in vivo, iv, 0 mg/kg, 72 h, tissue Plasma, dose level Control, time 3 day, vehicle 100 % SALINE
readout.label: LIPASE (u/L)

compound	observed.result
CC[C@]1(O)C[C@@H]2CN(CCc3c([nH]c4ccccc34)[C@@](C(=O)OC)(c3cc4c(cc3OC)N(C)[C@H]3[C@@](O)(C(=O)OC)[C@H](OC(C)=O)[C@]5(CC)C=CCN6CC[C@]43[C@@H]65)C2)C1 [VINBLASTINE]	10.83
COc1cccc2c1C(=O)c1c(O)c3c(c(O)c1C2=O)C[C@@](O)(C(=O)CO)C[C@@H]3O[C@H]1C[C@H](N)[C@H](O)[C@H](C)O1 [DOXORUBICIN]	18.83
CCc1c2c(nc3ccc(OC(=O)N4CCC(N5CCCCC5)CC4)cc13)-c1cc3c(c(=O)n1C2)COC(=O)[C@]3(O)CC [IRINOTECAN]	9.5
CCC1=C[C@@H]2CN(C1)Cc1c([nH]c3ccccc13)[C@@](C(=O)OC)(c1cc3c(cc1OC)N(C)[C@H]1[C@@](O)(C(=O)OC)[C@H](OC(C)=O)[C@]4(CC)C=CCN5CC[C@]31[C@@H]54)C2 [VINORELBINE]	10
COc1cccc2c1C(=O)c1c(O)c3c(c(O)c1C2=O)C[C@@](O)(C(=O)CO)C[C@@H]3O[C@H]1C[C@H](N)[C@@H](O)[C@H](C)O1 [EPIRUBICIN]	9.5
CC(=O)N[C@@H]1[C@H](Oc2c3cc4cc2Oc2ccc(cc2Cl)[C@@H](O[C@@H]2O[C@@H](CO)[C@@H](O)[C@H](O)[C@@H]2NC(C)=O)[C@@H]2NC(=O)[C@H](NC(=O)[C@@H]4NC(=O)[C@H]4NC(=O)[C@@H](Cc5ccc(c(Cl)c5)O3)NC(=O)[C@H](N)c3ccc(O)c(c3)Oc3cc(O)cc4c3)c3ccc(O)c(c3)-c3c(O[C@H]4O[C@H](CO)[C@@H](O)[C@@H](O)[C@@H]4O)cc(O)cc3[C@@H](C(=O)O)NC2=O)O[C@@H](CO)[C@@H](O)[C@@H]1O	9.2

---

species: Rattus norvegicus; experiment: DrugMatrix - Regimen: Daily Repeat; assay type: toxicity, organism-based, Sprague-Dawley; design: regimen Daily Repeat, gender Male, age 6-8 weeks; conditions: in vivo, iv, 0 mg/kg, 72 h, tissue Plasma, dose level Control, time 3 day, vehicle 100 % SALINE
# reported TOTAL PROTEIN; entries follow
readout.label: TOTAL PROTEIN (G/DL)

molecule	readout.label	observed.result
CC(=O)N[C@@H]1[C@H](Oc2c3cc4cc2Oc2ccc(cc2Cl)[C@@H](O[C@@H]2O[C@@H](CO)[C@@H](O)[C@H](O)[C@@H]2NC(C)=O)[C@@H]2NC(=O)[C@H](NC(=O)[C@@H]4NC(=O)[C@H]4NC(=O)[C@@H](Cc5ccc(c(Cl)c5)O3)NC(=O)[C@H](N)c3ccc(O)c(c3)Oc3cc(O)cc4c3)c3ccc(O)c(c3)-c3c(O[C@H]4O[C@H](CO)[C@@H](O)[C@@H](O)[C@@H]4O)cc(O)cc3[C@@H](C(=O)O)NC2=O)O[C@@H](CO)[C@@H](O)[C@@H]1O	TOTAL PROTEIN	5.65
COc1cccc2c1C(=O)c1c(O)c3c(c(O)c1C2=O)C[C@@](O)(C(=O)CO)C[C@@H]3O[C@H]1C[C@H](N)[C@@H](O)[C@H](C)O1 [EPIRUBICIN]	TOTAL PROTEIN	5.98
